tested on: RAW264.7; assay: Inhibition of LPS-induced NO production in mouse RAW264.7 cells pretreated for 30 mins followed by LPS challenge measured after 12 hrs by Griess assay; format: functional, cell-based
pIC50: −log10 of the molar value.
outcomeMeasure: pIC50

> print(dat)
                                   compound  outcomemeasure  numericvalue
1  COc1cc(O)cc(O)c1C(=O)/C=C/c1ccccc1 [CARDAMOMIN]           pIC50          5.66

Data credit: ChEMBL document CHEMBL4000198
